Tested on: H3255
assay-info: relative viability (nuclei count vs DMSO), 5 days (fraction); higher = more cells survive
protocol-conditions: first compound 0.253 µM
recorded-endpoint: relative viability
Lab note: jot down the number only; don't add units.

Reference set, count: 4
compound	experimental-system	relative viability
Cc1cnc(-c2cnc(NCCNc3ccc(C#N)cn3)nc2-c2ccc(Cl)cc2Cl)[nH]1 + CS(=O)(=O)CCNCc1ccc(-c2ccc3ncnc(Nc4ccc(OCc5cccc(F)c5)c(Cl)c4)c3c2)o1 [Lapatinib] (partner 2 µM)	H3255	0.249
O=c1[nH]c2ccccc2n1C1CCN(CCCC(c2ccc(F)cc2)c2ccc(F)cc2)CC1 [Pimozide] + CC(=O)c1c(C)c2cnc(Nc3ccc(N4CCNCC4)cn3)nc2n(C2CCCC2)c1=O [Palbociclib] (partner 0.5 µM)	H3255	0.312
Cc1cnc(-c2cnc(NCCNc3ccc(C#N)cn3)nc2-c2ccc(Cl)cc2Cl)[nH]1 + Nc1nc2[nH]cc(CCc3ccc(C(=O)N[C@@H](CCC(=O)O)C(=O)O)cc3)c2c(=O)[nH]1 [Pemetrexed] (partner 0.2 µM)	H3255	0.587
O=c1[nH]c2ccccc2n1C1CCN(CCCC(c2ccc(F)cc2)c2ccc(F)cc2)CC1 [Pimozide] + CS(=O)(=O)N1CCN(Cc2cc3nc(-c4cccc5[nH]ncc45)nc(N4CCOCC4)c3s2)CC1 [Pictilisib] (partner 1 µM)	H3255	0.406

Continue with the next compound.
Identify measured relative viability associated with Cc1cnc(-c2cnc(NCCNc3ccc(C#N)cn3)nc2-c2ccc(Cl)cc2Cl)[nH]1 + O=C(CCCCCCC(=O)Nc1ccccc1)NO [Vorinostat] (partner 1 µM)
0.717
